Ref: ChEMBL document CHEMBL1201862

# Target Or Test System: Apoptotic protease-activating factor 1 (Homo sapiens)
# Sequence (O14727 whole entry): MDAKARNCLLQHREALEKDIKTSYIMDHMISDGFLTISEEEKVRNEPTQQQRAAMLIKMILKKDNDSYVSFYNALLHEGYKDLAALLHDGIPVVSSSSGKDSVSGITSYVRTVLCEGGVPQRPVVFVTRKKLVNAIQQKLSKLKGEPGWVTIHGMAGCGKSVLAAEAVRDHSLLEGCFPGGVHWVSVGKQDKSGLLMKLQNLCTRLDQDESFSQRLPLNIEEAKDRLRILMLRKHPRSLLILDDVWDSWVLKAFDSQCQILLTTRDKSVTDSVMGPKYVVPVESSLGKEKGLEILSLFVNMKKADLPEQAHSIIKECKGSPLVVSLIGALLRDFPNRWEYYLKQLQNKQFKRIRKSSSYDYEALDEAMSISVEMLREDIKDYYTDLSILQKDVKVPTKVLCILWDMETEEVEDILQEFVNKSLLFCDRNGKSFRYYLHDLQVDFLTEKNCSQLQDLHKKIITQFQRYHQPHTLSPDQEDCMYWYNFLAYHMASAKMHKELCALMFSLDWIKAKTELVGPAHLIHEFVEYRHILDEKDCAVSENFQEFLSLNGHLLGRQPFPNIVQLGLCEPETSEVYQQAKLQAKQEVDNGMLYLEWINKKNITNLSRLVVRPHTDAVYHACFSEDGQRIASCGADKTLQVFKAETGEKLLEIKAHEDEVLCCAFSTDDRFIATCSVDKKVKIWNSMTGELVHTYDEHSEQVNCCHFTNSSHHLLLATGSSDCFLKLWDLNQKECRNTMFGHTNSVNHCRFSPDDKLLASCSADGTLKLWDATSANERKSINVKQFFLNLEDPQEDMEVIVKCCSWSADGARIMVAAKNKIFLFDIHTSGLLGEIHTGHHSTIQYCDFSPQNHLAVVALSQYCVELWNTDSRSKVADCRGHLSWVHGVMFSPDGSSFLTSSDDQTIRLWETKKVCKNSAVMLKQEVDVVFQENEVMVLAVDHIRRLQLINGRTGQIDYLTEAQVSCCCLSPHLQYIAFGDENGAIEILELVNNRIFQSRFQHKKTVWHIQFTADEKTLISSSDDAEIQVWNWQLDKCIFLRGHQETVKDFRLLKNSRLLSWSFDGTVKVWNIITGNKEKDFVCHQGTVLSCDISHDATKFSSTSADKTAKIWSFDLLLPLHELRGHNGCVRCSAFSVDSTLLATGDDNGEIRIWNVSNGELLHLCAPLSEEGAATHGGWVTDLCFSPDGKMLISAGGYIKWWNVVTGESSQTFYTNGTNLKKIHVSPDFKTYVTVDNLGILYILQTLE
# Assay type: functional
Active and inactive are the calls of the source.
Pick one and only one: active, inactive

>  <Compound>
CCCNC(=O)c1c(N)n(CC2CCCO2)c2nc3ccccc3nc12 (centres undefined)

>  <Assigned Label>
active

$$$$
>  <Compound>
CCN1/C(=C/c2ccc3cc(C)ccc3[n+]2CC)Sc2ccc3sccc3c21

>  <Assigned Label>
inactive

$$$$
>  <Compound>
CCc1ccc(S(=O)(=O)/N=C2\C=C(Nc3ccc(O)cc3)C(=O)c3ccccc32)cc1

>  <Assigned Label>
active

$$$$

Continue with the next compound.
[Q] What was the test verdict on `CC1(C)CNc2cc(N)ccc2S1` ?
[A] active

###

Listed here: items and their measured IC50.
# Target Or Test System: UniProt:Q8IL11
# Run Description: P. falciparum M17LAP inhibitors, primary screen, biochemical, fluorogenic H-Leu-NHMec substrate, 1536-well (AID 1619)
# Format: functional
Active and inactive are the calls of the source.

>  <Compound>
COc1cc(/C=C2\SC(=S)N(NS(=O)(=O)c3ccccc3)C2=O)ccc1O

>  <IC50>
38.8 µM (active)

$$$$
>  <Compound>
CC(C)(C)C1CCc2c(sc(NC(=O)C3CC=CCC3C(=O)O)c2C#N)C1 (stereo unspecified)

>  <IC50>
11 µM (active)

$$$$
>  <Compound>
CCOC(=O)C1=C(Nc2ccc(C)cc2)S/C(=C\c2ccc(OCC(=O)O)c(OCC)c2)C1=O

>  <IC50>
15.6 µM (active)

$$$$
>  <Compound>
COc1ccc(-c2cc(=O)[nH][nH]2)cc1OC

>  <IC50>
7.86 µM (active)

$$$$
>  <Compound>
CCOc1ccc(C2C(C(=O)Nc3ccccc3)=C(C)N=c3s/c(=C/c4cccc(OCC(=O)O)c4)c(=O)n32)cc1 (stereo unspecified)

>  <IC50>
5.95 µM (active)

$$$$

[Q] Would you kindly share the measured IC50 for C/C(=C\c1ccco1)C1C(C#N)=C(N)Oc2[nH]nc(-c3ccccc3)c21 (stereo unspecified) ?
[A] 83.7 µM (active)

[Q] What about `Cc1cc(NS(=O)(=O)c2ccc(NC(=O)CN3C(=O)c4ccccc4C3=O)cc2)nc(C)n1` ?
[A] 64.4 µM (active)

[Q] For `Cc1onc(-c2ccccc2)c1C(=O)NNC(=S)NC(=O)c1ccc(F)cc1` then?
[A] 79.4 µM (active)

[Q] Follow-up item: `COc1cccc(CNc2nn[nH]n2)c1OC`
[A] 67.2 µM (active)

[Q] Could you do the same for CC1CCCCN1C(=O)CSc1nc(O)cc(-c2ccccc2)n1 (stereo unspecified) , please?
[A] 63.5 µM (active)

[Q] Repeat with `O=C1c2ccccc2C(=O)N1/N=C/c1ccc(O)c(O)c1`
[A] 30.4 µM (active)

###

# Run Description: Luminescence Cell-Based Dose Response HTS to Identify Activators of Luciferase Translation or Activity in H4 […] Cells. [Related pubchem assays: 1829 (Project Summary), 1814 (Primary HTS)]
# Type: functional
Calls of active or inactive are those of the source.
Measured Endpoint: EC50

Worked examples, 3 compounds total:
>  <Item Smiles>
CC(C)(C)c1ccc(C(=O)NC(=S)Nn2cnnc2)cc1

>  <EC50>
69.9 µM (active)

$$$$
>  <Item Smiles>
CC1(C)CC(=O)/C(=N/Nc2ccc(Cl)cc2)CO1

>  <EC50>
0.207 µM (active)

$$$$
>  <Item Smiles>
COC(=O)c1ccc(/N=C/c2c(C(F)(F)F)n[nH]c2O)cc1

>  <EC50>
> 120 µM (not active)

$$$$

Now look at this entry.
[Q] Which EC50 value is on record for `c1ccc(-c2nc(C3CCCCC3)no2)cc1` ?
[A] 0.896 µM (active)

###

Listing of entries alongside the reported IC50.
# Target Or Test System: Estrogen receptor (Homo sapiens, UniProt P03372);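 further: potency for inhibiting coactivator peptide recruitment to the receptor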
# Sequence (P03372 whole entry): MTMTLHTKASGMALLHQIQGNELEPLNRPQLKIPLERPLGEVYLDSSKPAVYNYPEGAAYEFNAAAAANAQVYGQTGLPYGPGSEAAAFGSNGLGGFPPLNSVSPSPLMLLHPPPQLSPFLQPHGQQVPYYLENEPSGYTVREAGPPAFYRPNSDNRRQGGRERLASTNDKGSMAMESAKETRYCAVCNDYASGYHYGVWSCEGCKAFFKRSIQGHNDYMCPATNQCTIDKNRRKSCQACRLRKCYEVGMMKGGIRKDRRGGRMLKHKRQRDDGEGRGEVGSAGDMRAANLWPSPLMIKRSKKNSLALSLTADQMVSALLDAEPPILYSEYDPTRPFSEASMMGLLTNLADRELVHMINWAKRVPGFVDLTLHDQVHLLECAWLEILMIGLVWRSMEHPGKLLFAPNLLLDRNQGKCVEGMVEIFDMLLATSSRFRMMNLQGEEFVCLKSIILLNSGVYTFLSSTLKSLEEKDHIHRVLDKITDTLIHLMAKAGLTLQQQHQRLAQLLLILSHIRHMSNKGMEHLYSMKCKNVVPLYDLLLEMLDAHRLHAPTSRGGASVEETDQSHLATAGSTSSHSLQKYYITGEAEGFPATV
The source made the active and inactive calls.

These solved cases illustrate the format of a correct answer.
>  <Compound>
CC(=O)N(C(C)=O)c1c(C#N)c(C)n(-c2ccccc2)c1C(=O)c1ccccc1

>  <Target Or Test System>
Estrogen receptor (Homo sapiens, UniProt P03372);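 further: potency for inhibiting coactivator peptide recruitment to the receptor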

>  <IC50>
> 50 µM (not active)

$$$$
>  <Compound>
COc1ccccc1N1CCN(C(=O)c2cc3c(s2)CCC3)CC1

>  <Target Or Test System>
Estrogen receptor (Homo sapiens, UniProt P03372);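 further: potency for inhibiting coactivator peptide recruitment to the receptor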

>  <IC50>
5.19 µM (active)

$$$$
>  <Compound>
Cc1ccc(C(=O)NCC(=O)OCC(=O)c2c(N)n(C)c(=O)n(C)c2=O)s1

>  <Target Or Test System>
Estrogen receptor (Homo sapiens, UniProt P03372);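 further: potency for inhibiting coactivator peptide recruitment to the receptor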

>  <IC50>
> 50 µM (not active)

$$$$

[Q] What value of IC50 has been reported for the following compound? COC(=O)c1ccc2c(c1)N(Cc1nc(-c3cccc(C)c3)oc1C)C(=O)C1CCCN21 (stereo not given)
[A] > 50 µM (not active)

[Q] Next up: `Cc1cc(C)n2nc(SCc3cc(=O)oc4cc(O)ccc34)nc2n1`
[A] 10.1 µM (active)

###

# Target Or Test System: UniProt P41145
# Sequence (P41145 whole entry): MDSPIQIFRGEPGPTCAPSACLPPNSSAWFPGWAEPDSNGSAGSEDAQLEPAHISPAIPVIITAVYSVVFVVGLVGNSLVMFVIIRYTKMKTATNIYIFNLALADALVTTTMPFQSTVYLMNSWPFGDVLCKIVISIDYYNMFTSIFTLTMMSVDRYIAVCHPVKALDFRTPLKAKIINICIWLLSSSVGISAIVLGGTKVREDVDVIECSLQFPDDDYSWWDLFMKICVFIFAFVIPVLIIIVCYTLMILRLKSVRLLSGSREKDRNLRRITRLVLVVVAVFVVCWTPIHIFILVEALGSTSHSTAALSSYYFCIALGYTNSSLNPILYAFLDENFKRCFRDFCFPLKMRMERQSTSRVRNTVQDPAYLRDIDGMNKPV
# Assay type: functional
Measured Endpoint: IC50

[Q] Return reported IC50; argument: O=C(C1CCCN(S(=O)(=O)Cc2ccccc2)C1)N1CCC(Cc2ccccc2)CC1 (stereo unspecified)
[A] > 32 µM

###

# Target Or Test System: Aurora kinase B (Homo sapiens, UniProt Q96GD4)
# Sequence (Q96GD4 whole entry): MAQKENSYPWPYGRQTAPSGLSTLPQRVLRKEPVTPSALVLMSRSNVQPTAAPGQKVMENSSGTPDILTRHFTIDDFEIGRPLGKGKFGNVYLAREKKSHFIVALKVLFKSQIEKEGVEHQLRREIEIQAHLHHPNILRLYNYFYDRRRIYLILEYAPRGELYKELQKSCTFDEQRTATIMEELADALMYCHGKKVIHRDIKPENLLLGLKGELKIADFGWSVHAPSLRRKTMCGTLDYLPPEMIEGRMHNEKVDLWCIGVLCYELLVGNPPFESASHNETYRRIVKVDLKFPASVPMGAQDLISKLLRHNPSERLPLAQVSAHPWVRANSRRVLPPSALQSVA
# Format: functional
Calls of active or inactive are those of the source.
Valid outcomes are listed here; reply with one: Y = active, N = inactive

>  <Compound>
COc1c(-c2nc3ccccc3[nH]2)c(O)cc2oc(C)cc(=O)c12

>  <Assigned Label>
Y

$$$$

[Q] Field: outcome | Entry: `O=C1Nc2ccccc2Nc2cc(-c3ccccc3O)ccc21`
[A] N

[Q] Same for `COC(=O)c1c(N)nc2ccccn12`
[A] Y

[Q] What about this compound? Cc1ccc(F)c(NC(=O)Nc2ccc(-c3cccc4[nH]nc(N)c34)cc2)c1 [LINIFANIB]
[A] Y

[Q] Now give it for `CCc1cccc2c1n(CC)c(=N)n2CC(=O)c1ccc(Br)cc1` too.
[A] Y

###

Reported values of EC50 for individual entries
# Target Or Test System: Peroxisome proliferator-activated receptor gamma/Nuclear receptor coactivator 2 (Homo sapiens, UniProt P37231)
# Sequence (P37231 whole entry): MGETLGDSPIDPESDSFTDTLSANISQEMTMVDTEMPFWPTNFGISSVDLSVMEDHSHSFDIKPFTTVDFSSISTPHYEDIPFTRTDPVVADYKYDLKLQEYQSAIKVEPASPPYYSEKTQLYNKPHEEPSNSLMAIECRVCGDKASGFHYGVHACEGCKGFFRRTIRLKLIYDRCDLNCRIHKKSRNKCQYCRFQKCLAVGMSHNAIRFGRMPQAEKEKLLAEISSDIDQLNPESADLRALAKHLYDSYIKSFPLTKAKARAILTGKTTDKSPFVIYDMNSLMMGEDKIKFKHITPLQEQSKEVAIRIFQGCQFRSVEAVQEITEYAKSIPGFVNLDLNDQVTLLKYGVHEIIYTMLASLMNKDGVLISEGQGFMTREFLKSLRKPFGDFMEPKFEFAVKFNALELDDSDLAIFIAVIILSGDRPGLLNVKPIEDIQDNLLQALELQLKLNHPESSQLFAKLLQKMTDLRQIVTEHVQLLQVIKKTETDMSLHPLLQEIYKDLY
# Sequence (Q15596 whole entry, further chain): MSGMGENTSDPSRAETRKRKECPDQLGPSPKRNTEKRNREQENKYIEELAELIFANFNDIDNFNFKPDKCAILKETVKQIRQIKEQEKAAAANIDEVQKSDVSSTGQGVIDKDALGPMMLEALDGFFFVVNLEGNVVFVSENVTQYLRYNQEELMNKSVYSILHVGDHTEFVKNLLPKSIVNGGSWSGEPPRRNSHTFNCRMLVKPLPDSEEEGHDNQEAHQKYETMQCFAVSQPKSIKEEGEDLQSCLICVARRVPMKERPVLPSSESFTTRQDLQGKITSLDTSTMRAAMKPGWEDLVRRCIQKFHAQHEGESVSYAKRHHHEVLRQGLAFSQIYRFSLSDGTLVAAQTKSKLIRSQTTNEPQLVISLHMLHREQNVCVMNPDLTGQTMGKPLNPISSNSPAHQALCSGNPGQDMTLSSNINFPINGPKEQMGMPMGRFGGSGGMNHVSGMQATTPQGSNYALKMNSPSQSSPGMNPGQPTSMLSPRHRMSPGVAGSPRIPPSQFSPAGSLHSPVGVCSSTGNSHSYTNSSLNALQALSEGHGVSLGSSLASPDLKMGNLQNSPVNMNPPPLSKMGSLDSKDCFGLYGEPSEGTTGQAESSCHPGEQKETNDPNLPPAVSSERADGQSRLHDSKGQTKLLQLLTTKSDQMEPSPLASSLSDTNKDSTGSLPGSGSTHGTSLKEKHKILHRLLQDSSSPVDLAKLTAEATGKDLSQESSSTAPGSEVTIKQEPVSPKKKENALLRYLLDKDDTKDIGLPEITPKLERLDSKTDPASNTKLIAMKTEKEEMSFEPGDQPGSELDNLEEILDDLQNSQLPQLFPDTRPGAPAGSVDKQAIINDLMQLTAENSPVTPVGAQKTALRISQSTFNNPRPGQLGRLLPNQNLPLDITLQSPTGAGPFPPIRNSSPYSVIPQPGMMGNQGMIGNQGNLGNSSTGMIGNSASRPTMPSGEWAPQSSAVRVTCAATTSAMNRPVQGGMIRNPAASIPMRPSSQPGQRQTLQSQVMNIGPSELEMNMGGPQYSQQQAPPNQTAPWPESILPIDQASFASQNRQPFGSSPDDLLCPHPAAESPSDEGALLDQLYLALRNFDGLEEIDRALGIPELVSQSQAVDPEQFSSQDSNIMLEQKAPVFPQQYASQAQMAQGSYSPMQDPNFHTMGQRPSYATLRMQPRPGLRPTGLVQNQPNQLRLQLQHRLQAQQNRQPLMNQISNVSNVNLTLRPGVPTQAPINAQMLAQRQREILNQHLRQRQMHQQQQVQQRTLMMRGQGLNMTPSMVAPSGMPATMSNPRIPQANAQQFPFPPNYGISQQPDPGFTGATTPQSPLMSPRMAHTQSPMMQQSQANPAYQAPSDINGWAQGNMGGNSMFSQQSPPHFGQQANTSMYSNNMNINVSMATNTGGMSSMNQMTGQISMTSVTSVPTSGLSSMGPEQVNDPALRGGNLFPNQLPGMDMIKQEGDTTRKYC
# Run Description: TR-FRET dose response biochemical High Throughput Screening assay for agonists of the steroid receptor coactivator 2 (SRC-2) recruitment by the peroxisome proliferator-activated receptor gamma (PPAR gamma): non-selective agonists. [Related pubchem assays: 1297, 1032 ]
# Format: functional

[Q] Which value of EC50 has been reported for `CCn1c(=O)cc(SCC(=O)NCc2ccc3c(c2)OCO3)c2ccccc21` in the records?
[A] > 79.4 µM (not active)

[Q] Lookup `COc1cccc(OC)c1C(=O)Nc1nnc(-c2cccs2)s1`
[A] 22 µM (not active)

[Q] Try the compound `O=C(Nc1ccc(S(=O)(=O)Nc2ncccn2)cc1)c1ccc(Br)s1`
[A] > 79.4 µM (not active)

[Q] And the next one, `CCn1c(=O)cc(SCC(=O)N2CCC3(CC2)OCCO3)c2ccccc21` ?
[A] > 79.4 µM (not active)

###

Measured AC50 accompanies every entry in the list below.
# Target Or Test System: Cytochrome P450 2C19 (Homo sapiens)
# Sequence (P33261 whole entry): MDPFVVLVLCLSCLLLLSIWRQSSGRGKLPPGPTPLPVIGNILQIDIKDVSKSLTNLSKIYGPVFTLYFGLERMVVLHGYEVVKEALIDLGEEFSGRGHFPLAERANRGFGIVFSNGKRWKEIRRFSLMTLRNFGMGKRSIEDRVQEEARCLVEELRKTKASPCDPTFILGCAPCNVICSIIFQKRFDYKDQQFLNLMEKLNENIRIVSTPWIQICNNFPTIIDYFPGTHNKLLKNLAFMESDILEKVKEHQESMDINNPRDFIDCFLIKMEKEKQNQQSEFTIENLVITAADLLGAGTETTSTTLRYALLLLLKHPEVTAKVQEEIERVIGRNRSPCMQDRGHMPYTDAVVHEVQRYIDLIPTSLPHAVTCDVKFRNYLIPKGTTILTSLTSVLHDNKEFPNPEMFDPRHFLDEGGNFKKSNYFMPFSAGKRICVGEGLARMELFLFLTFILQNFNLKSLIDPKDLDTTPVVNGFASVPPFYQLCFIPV
# Run Description: Cytochrome panel assay with activity outcomes. Panel member name: p450-cyp2c19 Compounds with AC50 equal or less than 10 uM are considered active
# Assay type: functional
# Settings: read-out: AC50

>  <Item Smiles>
N[C@@H](CSS(=O)(=O)O)C(=O)O

>  <Measured Endpoint>
AC50

>  <Result>
7.94 µM (inconclusive)

$$$$

[Q] Recorded AC50 for `O=C(CCc1ccc(O)cc1)c1c(O)cc(O)cc1O` with Cytochrome P450 2C19 (Homo sapiens), please?
[A] 20 µM (inconclusive)

[Q] Cool, now `C/C(=N\O)c1cccc[n+]1Cc1ccccc1`
[A] 0.1 µM (inconclusive)

[Q] Try this compound next: `Cc1ccc(NC(=O)/C(=C\c2cccnc2)NC(=O)c2ccco2)cc1`
[A] 35.5 µM (inconclusive)

[Q] Okay, and `O=C1c2ccc3c4c(ccc(c24)C(=O)N1c1ccc2ccccc2c1)CC3` ?
[A] 2.24 µM (inconclusive)

[Q] // repeat for `Cc1ccc(O)c(-c2cc(C(F)(F)C(F)F)nc(-c3ccccc3)n2)c1` and report
[A] 14.1 µM (inconclusive)

###

# Target Or Test System: Streptokinase A (Streptococcus pyogenes serotype M1)
# Sequence (P10520 whole entry): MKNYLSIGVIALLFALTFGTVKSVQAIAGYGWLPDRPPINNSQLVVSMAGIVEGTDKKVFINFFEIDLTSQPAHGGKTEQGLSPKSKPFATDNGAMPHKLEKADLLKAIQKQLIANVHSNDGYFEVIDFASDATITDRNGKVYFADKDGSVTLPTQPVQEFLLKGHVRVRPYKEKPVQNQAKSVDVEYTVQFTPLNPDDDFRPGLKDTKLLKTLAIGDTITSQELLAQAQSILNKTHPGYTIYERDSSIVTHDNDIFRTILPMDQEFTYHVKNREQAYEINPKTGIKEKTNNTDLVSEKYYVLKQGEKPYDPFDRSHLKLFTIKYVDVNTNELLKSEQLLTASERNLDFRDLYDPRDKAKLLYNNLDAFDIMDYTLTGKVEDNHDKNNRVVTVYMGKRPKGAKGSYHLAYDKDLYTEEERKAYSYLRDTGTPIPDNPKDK
# Run Description: viability-normalized secreted streptokinase activity reduction – plasminogen activation absorbance, OD405, dose response (AID 1914);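 further: secreted streptokinase activity via plasminogen activation per viability signal from cell pellet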
# Assay type: functional, Streptococcus pyogenes M1 GAS
Activity calls are given as the source filed them.
Below, each of the compounds is paired with its reported EC50 value.

>  <Compound>
CCN1/C(=C/c2ccc3cc(C)ccc3[n+]2CC)Sc2ccc3sccc3c21

>  <Result>
> 150 µM (not active)

$$$$
>  <Compound>
O=C(NCc1nnc(SCC(=O)N2CCOCC2)o1)c1c(F)cccc1F

>  <Result>
> 150 µM (not active)

$$$$

[Q] Item `Cc1ccc(Nc2cc(C)nn2-c2nc(C)cc(C)n2)cc1` with Streptokinase A (Streptococcus pyogenes serotype M1) - EC50?
[A] > 150 µM (not active)

[Q] What would you report for `Nc1c(C(=O)OCc2ccccc2)c2nc3ccccc3nc2n1Cc1cccs1` ?
[A] 18.5 µM (active)

[Q] Now the compound `CC(C)(C)c1cc[n+](C2=C([N-]S(=O)(=O)c3cccs3)C(=O)c3ccccc3C2=O)cc1`
[A] 3.8 µM (active)

[Q] Try the compound `CCc1ccc(/C=C2\SC(=S)N(CCCC(=O)Nc3ccccc3C(=O)O)C2=O)cc1`
[A] > 50 µM (not active)

[Q] Queued: `Cn1c2ccccc2c(=O)c2c(=O)n(C3CCCCC3)c(-c3cccs3)nc21`
[A] > 150 µM (not active)

[Q] Cool, now `CCCc1cc2c(-c3ccccc3)cc(=O)oc2cc1OCc1ccc(C(=O)O)o1`
[A] 13.8 µM (active)

[Q] Then `CCN(CC)c1nc(Nc2ccc([N+](=O)[O-])cc2)nc(N(CC)CC)n1` ?
[A] > 150 µM (not active)
